# ASSAYED_SYSTEM: Dual specificity protein kinase CLK4 (Homo sapiens) (UniProt Q9HAZ1)
# Sequence (Q9HAZ1 whole entry, looked up): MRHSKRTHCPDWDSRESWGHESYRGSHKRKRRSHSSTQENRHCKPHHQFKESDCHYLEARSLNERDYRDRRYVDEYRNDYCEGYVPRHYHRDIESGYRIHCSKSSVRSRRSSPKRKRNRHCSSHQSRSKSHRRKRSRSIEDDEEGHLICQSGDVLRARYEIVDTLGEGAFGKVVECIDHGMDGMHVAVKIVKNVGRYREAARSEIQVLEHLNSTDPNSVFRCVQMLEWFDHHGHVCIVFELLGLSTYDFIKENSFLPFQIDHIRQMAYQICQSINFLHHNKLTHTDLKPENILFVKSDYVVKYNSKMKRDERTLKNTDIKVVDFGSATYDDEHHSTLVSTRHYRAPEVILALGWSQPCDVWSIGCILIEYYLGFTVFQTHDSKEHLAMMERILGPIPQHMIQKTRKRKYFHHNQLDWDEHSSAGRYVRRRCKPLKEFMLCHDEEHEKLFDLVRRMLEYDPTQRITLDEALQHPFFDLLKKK
# ASSAY_PROTOCOL: qHTS Assay for Inhibitors of CDC-like Kinase 4 (ADP-FP Assay) (AID 1795); note: nearly all actives have a fitted effect of over 60% in size
# PARTICULARS: Transcreener ADP fluorescence polarization; series mostly up to 50 µM
Inconclusive results are not listed. Active and inactive are the calls of the source. Calls come from the whole dose curve; as a rule, active = well fitted inhibition curve with a large enough effect; inconclusive = small, poorly fitted or top-dose-only effect; inactive = flat fitted curve, though single readings scatter.
Classes used: TRUE for active, FALSE for inactive

INSERT INTO measurements (smiles_representation, label) VALUES
  ('Cc1noc(C)c1-c1nc(N(C)C)c2ccccc2n1', 'FALSE'),
  ('Clc1ccccc1-c1nc(NCc2cccs2)c2ccccc2n1', 'TRUE'),
  ('COc1ncc2nc(C)c(=O)n(Cc3ccc(F)cc3)c2n1', 'FALSE'),
  ('c1ccc(CNc2ncnc3ccc(-c4ccc5c(c4)OCO5)cc23)cc1', 'TRUE'),
  ('O=c1c(CCc2ccccc2)nc2cnc(N3CCOCC3)nc2n1C1CC1', 'FALSE'),
  ('FC(F)(F)c1ccccc1-c1cncnc1-n1ccnc1', 'FALSE'),
  ('CN(C)c1ncc2nc(-c3ccc(Cl)cc3)c(=O)n(Cc3cccs3)c2n1', 'FALSE'),
  ('Cn1cc(-c2nc3cnc(N4CCNCC4)nc3n(Cc3ccc(F)cc3)c2=O)c2ccccc21', 'FALSE'),
  ('CCNc1ncc2nc(-c3ccc(F)cc3)c(=O)n(C[C@H]3CCCO3)c2n1', 'FALSE'),
  ('COc1cccc(Cn2c(=O)c(-c3cc(F)cc(F)c3)nc3cnc(N4CCNCC4)nc32)c1', 'FALSE'),
  ('COc1ccc(-c2nc3cnc(OC)nc3n(CCC#N)c2=O)cc1', 'FALSE'),
  ('CC(=O)NCCNc1nc(-c2c(C)noc2C)nc2ccccc12', 'FALSE'),
  ('CCNc1ncc2nc(-c3cn(C)c4ccccc34)c(=O)n(Cc3cccs3)c2n1', 'FALSE');
